biological target: Sialic acid-binding Ig-like lectin 9 (Homo sapiens) (UniProt Q9Y336); test: Hs-Siglec9 ALPHAscreen SOP 20170721; set-up: scale not given: direction of the effect not stated beside the values; settings: 10 µM
Sequence (Q9Y336 whole entry): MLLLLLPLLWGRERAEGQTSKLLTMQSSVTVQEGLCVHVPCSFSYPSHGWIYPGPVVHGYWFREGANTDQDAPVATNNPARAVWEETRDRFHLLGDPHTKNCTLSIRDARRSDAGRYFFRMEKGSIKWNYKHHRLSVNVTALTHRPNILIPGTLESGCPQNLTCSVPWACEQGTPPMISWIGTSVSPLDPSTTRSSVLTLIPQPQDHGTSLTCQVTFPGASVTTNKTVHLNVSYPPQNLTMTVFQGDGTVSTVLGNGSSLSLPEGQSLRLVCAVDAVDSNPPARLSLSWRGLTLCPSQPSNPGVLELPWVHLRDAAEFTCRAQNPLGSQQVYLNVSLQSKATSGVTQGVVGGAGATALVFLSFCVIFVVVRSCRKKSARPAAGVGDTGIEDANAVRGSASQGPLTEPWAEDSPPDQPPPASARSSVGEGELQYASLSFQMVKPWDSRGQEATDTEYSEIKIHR
List of Percent Effect values.
Lab book: enter the figure in %, no units written.

Cc1nnc2n1CCN(Cc1ncc(-c3ccc(Cl)cc3)o1)C2 = 14.6
COCCCN(CCOC)C(=O)Nc1ccc(C)cc1C = -2.12

Task: Name the recorded Percent Effect for COc1ccccc1C(=O)N1Cc2cc(C)ccc2OCC1CN(C)C (stereo unspecified) .
Result: -7.4

Task: Let us now turn to CCn1nnc2cc(C(=O)N3CCCC3Cn3cc(C)cn3)ccc21 (stereo unspecified)
Result: 3.15

Task: Also O=C(c1ccccn1)N1CCc2nc(-c3cnccn3)nc(O)c2C1 , if possible.
Result: 0.354

Task: Thanks! And Cc1cccc(OCCNC(=O)CN2CCCC2Cn2cccn2)c1 (stereo unspecified) ?
Result: 6.34
